Tested on: human beta-coronavirus OC43
test_details: microbe, parasite or virus in culture
Format: cell-based
condition_notes: Betacoronavirus 1, OC43, HeLa, 144 h, OC43 in HeLa cells, 6 days at 33° C., class symbols; read-out: EC50
pEC50: −log10 of the molar value.
Recorded pEC50 by entry

Query :: Look up pEC50 of O=C(NCc1ccccc1)C(=O)C(C[C@@H]1CCNC1=O)NC(=O)[C@@H]1C[C@@H](C(F)(F)F)CN1C(=O)c1cc2ccccc2[nH]1 (stereo partly drawn) and report it.
Result :: 6.00 to 7.00

Query :: Look up pEC50 of `CC[C@@H]1C[C@@H](C(=O)N[C@@H](C[C@@H]2CCNC2=O)C(=O)C(=O)NCc2ccccc2)N(C(=O)c2cc3ccccc3[nH]2)C1` and report it.
Result :: 6.00 to 7.00

----------
Tested on: human beta-coronavirus OC43
test_details: microbe, parasite or virus in culture
Format: cell-based
condition_notes: Betacoronavirus 1, OC43, HeLa, 144 h, OC43 in HeLa cells, 6 days at 33° C., class symbols; read-out: EC50
Recorded EC50 by entry

Some solved cases for reference:
O=C(NCc1ccccc1)C(=O)C(C[C@@H]1CCCNC1=O)NC(=O)[C@@H]1[C@H]2CCC[C@H]2CN1C(=O)c1cc2ccccc2[nH]1 (stereo partly drawn) [Compound 17] = 100 to 1000 nM
COc1cccc2[nH]c(C(=O)N3C[C@@H]4CCC[C@@H]4[C@H]3C(=O)N[C@@H](C[C@@H]3CCNC3=O)C(=O)COCc3ccccc3)cc12 [Compound 27A] = < 100 nM

In the following, a different compound is considered.
Query :: Look up EC50 of O=C(c1ccccc1)c1c[nH]c(C(=O)N2C[C@@H]3CCC[C@@H]3[C@H]2C(=O)N[C@@H](C[C@@H]2CCNC2=O)C(=O)CO)c1 [Compound 84] and report it.
Result :: 1000 to 10000 nM

----------
target_or_test_system: 3CLpro (Severe acute respiratory syndrome coronavirus 2)
test_details: SARS-CoV-2 3CLpro protease assay (duplex, SAMDI-MS)
Format: biochemical
Set-up: For the duplex assay, 3CLpro and HRV3C was added
condition_notes: 3CLpro, 30 mins preincubation, class symbols; read-out: SARS-Cov-2 IC50
measured_property: IC50

Some solved cases for reference:
COc1c(Cl)ccc2[nH]c(C(=O)N3C[C@@H]4CCC[C@@H]4[C@H]3C(=O)N[C@@H](C[C@@H]3CCNC3=O)C(=O)CO)cc12 = 0.02 to 0.2 µM
COc1cccc2[nH]c(C(=O)N3C[C@]4(C[C@H]3C(=O)NC(C=O)C[C@@H]3CCCNC3=O)CC4(F)F)cc12 (some centres unmarked) = 0.02 to 0.2 µM
COc1cccc2[nH]c(C(=O)N3C[C@@H]4CCCC[C@@H]4[C@H]3C(=O)N[C@@H](C[C@@H]3CCCNC3=O)C(=O)CO)cc12 = < 0.02 µM
COc1cccc2[nH]c(C(=O)N3C[C@@H]4CCCC[C@@H]4[C@H]3C(=O)N[C@@H](C[C@@H]3CCCNC3=O)C(=O)COCc3ccccc3)cc12 (single isomer, unassigned) = 0.02 to 0.2 µM
COc1cccc2[nH]c(C(=O)N3C[C@@H]4CCC[C@@H]4[C@H]3C(=O)N[C@@H](C[C@@H]3CCNC3=O)C(=O)C(=O)NCCO)cc12 = < 0.02 µM

Query :: Look up IC50 of `CNc1cccc2[nH]c(C(=O)N3C[C@@H]4CCC[C@@H]4[C@H]3C(=O)N[C@@H](C[C@@H]3CCNC3=O)C(=O)CO)cc12` and report it.
Result :: 0.02 to 0.2 µM

Query :: Look up IC50 of `O=C(NC1CC1)C(=O)[C@H](C[C@@H]1CCNC1=O)NC(=O)[C@@H]1CC2(CCN1C(=O)c1cc3c(C4CC4)cccc3[nH]1)CC2` and report it.
Result :: 0.02 to 0.2 µM

Query :: Look up IC50 of CC1(C)CCN(C(=O)c2cc3ccccc3[nH]2)[C@H](C(=O)NC(C[C@@H]2CCNC2=O)C(=O)C(=O)NCc2ccccc2)C1 (some centres unmarked) and report it.
Result :: 0.02 to 0.2 µM

Query :: Look up IC50 of `COc1cccc2[nH]c(C(=O)N3C[C@@H]4CCC[C@@H]4[C@H]3C(=O)N[C@@H](C[C@@H]3CCNC3=O)C(=O)CO)nc12` and report it.
Result :: 0.02 to 0.2 µM
